Give measured SI MCF-7 for each item. Keep answers brief.
# Test system: MCF-7 human breast cancer cells
# Assay Method Text: MTT cell viability assay, MCF-7
# Type: cell-based
# Study Conditions: ratio of IC50 values for normal (MCF-10A) and cancer cells (MCF-7)
# respond with the number and nothing more

Ask | Give a short answer stating reported SI MCF-7 for CC[C@]1(O)C[C@@H]2CN(CCc3c([nH]c4ccccc34)[C@@](C(=O)OC)(c3cc4c(cc3OC)N(C)[C@H]3[C@@](O)(C(=O)OC)[C@H](OC(C)=O)[C@]5(CC)C=CCN6CC[C@]43[C@@H]65)C2)C1 .
Reply | 0.13

Ask | Give a short answer stating reported SI MCF-7 for Cc1c2ccncc2c(C)c2c1[nH]c1ccccc12 .
Reply | 0.9

Ask | Give a short answer stating reported SI MCF-7 for CC(=O)O[C@H]1C(=O)[C@@]2(C)[C@H]([C@H](OC(=O)c3ccccc3)[C@]3(O)C[C@H](OC(=O)[C@H](O)[C@@H](NC(=O)c4ccccc4)c4ccccc4)C(C)=C1C3(C)C)[C@]1(OC(C)=O)CO[C@@H]1C[C@@H]2O .
Reply | 33.7

###

Give measured IC50 for each item. Keep answers brief.
# Test system: MDA-MB-231 human breast cancer cells
# Assay Method Text: MTT cell viability assay, MDA-MB-231
# Format: cell-based
# Study Conditions: Homo sapiens, MDA-MB-231; MTT, 72 h, mean ± SD of three experiments
Number first, unit second.

Ask | State, for MDA-MB-231 human breast cancer cells, measured IC50 of the compound listed here: CC(=O)O[C@H]1C(=O)[C@@]2(C)[C@H]([C@H](OC(=O)c3ccccc3)[C@]3(O)C[C@H](OC(=O)[C@H](O)[C@@H](NC(=O)c4ccccc4)c4ccccc4)C(C)=C1C3(C)C)[C@]1(OC(C)=O)CO[C@@H]1C[C@@H]2O
Reply | 19 nM

Ask | State, for MDA-MB-231 human breast cancer cells, measured IC50 of the compound listed here: Cc1c2ccncc2c(C)c2c1[nH]c1ccccc12
Reply | 1900 nM

Ask | State, for MDA-MB-231 human breast cancer cells, measured IC50 of the compound listed here: Cc1cc(C=NN=Cc2cc(C)c3[nH]c4ccc(Br)cc4c3c2C)c(C)c2c1[nH]c1ccc(Br)cc12
Reply | 300 nM

Ask | State, for MDA-MB-231 human breast cancer cells, measured IC50 of the compound listed here: CC[C@]1(O)C[C@@H]2CN(CCc3c([nH]c4ccccc34)[C@@](C(=O)OC)(c3cc4c(cc3OC)N(C)[C@H]3[C@@](O)(C(=O)OC)[C@H](OC(C)=O)[C@]5(CC)C=CCN6CC[C@]43[C@@H]65)C2)C1
Reply | 130 nM

###

# Tested on: MCF-10A human mammary epithelial cells
# Assay Method Text: MTT cell viability assay, MCF-10A
# Type: cell-based
# Study Conditions: 72 h, normal cells, mean ± SD of three experiments
Give measured IC50 for each item. Keep answers brief.

Ask | State, for MCF-10A human mammary epithelial cells, measured IC50 of the compound listed here: Cc1c2ccncc2c(C)c2c1[nH]c1ccccc12
Reply | 1200 nM

Ask | State, for MCF-10A human mammary epithelial cells, measured IC50 of the compound listed here: CC[C@]1(O)C[C@@H]2CN(CCc3c([nH]c4ccccc34)[C@@](C(=O)OC)(c3cc4c(cc3OC)N(C)[C@H]3[C@@](O)(C(=O)OC)[C@H](OC(C)=O)[C@]5(CC)C=CCN6CC[C@]43[C@@H]65)C2)C1
Reply | 17.2 nM

Ask | State, for MCF-10A human mammary epithelial cells, measured IC50 of the compound listed here: Cc1cc(C=NN=Cc2cc(C)c3[nH]c4ccc(Br)cc4c3c2C)c(C)c2c1[nH]c1ccc(Br)cc12
Reply | > 100000 nM

Ask | State, for MCF-10A human mammary epithelial cells, measured IC50 of the compound listed here: CC(=O)O[C@H]1C(=O)[C@@]2(C)[C@H]([C@H](OC(=O)c3ccccc3)[C@]3(O)C[C@H](OC(=O)[C@H](O)[C@@H](NC(=O)c4ccccc4)c4ccccc4)C(C)=C1C3(C)C)[C@]1(OC(C)=O)CO[C@@H]1C[C@@H]2O
Reply | 640 nM

Reference source for all entries: paper PMC12030284
